Here, each record is paired with measured RP-LC retention time data.
- procedure_details: gradient 5% acetonitrile 3 min, to 50% in 2 min, to 85% in 15 min, held 3 min, 100 µL/min
- assay_conditions: column: Zorbax Extend-C18 2.1 x 50 mm; eluents: water / acetonitrile, 0.1% formic acid
readout_type: RP-LC retention time (s)

compound=O=C(Cn1ccc2ccc(N3CCOCC3)nc21)NCc1ccc2c(c1)OCO2 readout_type="RP-LC retention time" measurement=791
compound=CC1CCN(c2nn(CC(=O)Nc3ccccc3)c(=O)c3ccccc23)CC1 readout_type="RP-LC retention time" measurement=1110
compound=Cc1nn(-c2nc(-c3ccc(F)cc3)cs2)c(C)c1CC(=O)Nc1ccc(Br)cc1 readout_type="RP-LC retention time" measurement=1240
compound="COCC(=O)NC1CCC12CCN(C(C)=O)CC2 (stereo not given)" readout_type="RP-LC retention time" measurement=589
compound=O=C(Cn1cccc1-c1nnc(-c2ccccc2)o1)N1CCN(C(=O)c2ccco2)CC1 readout_type="RP-LC retention time" measurement=774

---

- procedure_details: gradient 5% acetonitrile 3 min, to 50% in 2 min, to 85% in 15 min, held 3 min, 100 µL/min
- assay_conditions: column: Zorbax Extend-C18 2.1 x 50 mm; eluents: water / acetonitrile, 0.1% formic acid
Overview of recorded RP-LC retention time for various molecules
readout_type: RP-LC retention time

molecule=O=C1CCCc2cc(S(=O)(=O)N3CCC(C(=O)NC4CCCCCCC4)CC3)ccc2N1 measurement="814 s"
molecule=CC1(C)CC(=O)c2cn(-c3ccccc3)c(=O)c(C(=O)N3CCC(N4CCCCC4)CC3)c2C1 measurement="622 s"
molecule=CNC(=O)N1CCOc2cc(C)ccc21 measurement="713 s"
molecule=Cc1ccc(C(=O)NCCn2c(=O)n(Cc3ccc(F)cc3)c3cccnc32)s1 measurement="781 s"
molecule=Cc1c(C(=O)N(C)C)cnn1-c1cc(-c2nc(C(C)(C)C)no2)ccn1 measurement="922 s"
molecule=Cc1ccc(S(=O)(=O)CCc2noc(-c3sc(C)nc3C)n2)cc1 measurement="818 s"
molecule=CCc1nc2cc(-c3noc(-c4cc(F)ccc4Cl)n3)ccc2o1 measurement="1270 s"
molecule=CC(=O)Nc1ccc(S(=O)(=O)NC2(c3nc(C4CC4)no3)CCCCC2)cc1Cl measurement="813 s"
molecule="Cc1ccc(C)c(CNC(=O)C2CCCN(c3cnn(C)c(=O)c3)C2)c1 (centres undefined)" measurement="723 s"

---

- procedure_details: gradient 5% acetonitrile 3 min, to 50% in 2 min, to 85% in 15 min, held 3 min, 100 µL/min
- assay_conditions: column: Zorbax Extend-C18 2.1 x 50 mm; eluents: water / acetonitrile, 0.1% formic acid
Recorded RP-LC retention time values for a group of molecules are listed next.
readout_type: RP-LC retention time (s)

molecule=Cc1ccc2c(=O)c3c([nH]c2c1C)CCN(CC(=O)Nc1ccc(F)c(F)c1)C3 unit_label=s measurement=646
molecule=Cc1cccc(-c2noc(-c3nc(C)no3)n2)c1 unit_label=s measurement=1050
molecule="CC(Oc1ccc(Cl)cc1)C(=O)NCC1CCOCC1 (stereo not given)" unit_label=s measurement=782
molecule=Cn1c(CNC(=O)CN2CCN(Cc3ccc(F)cc3)C2=O)nc2ccccc21 unit_label=s measurement=628
molecule="CCCC(=O)Nc1nc(-c2ccc3c(c2)NC(=O)C(C)O3)cs1 (stereo not given)" unit_label=s measurement=806
molecule=CSc1cccc(NC(=O)Cc2nnc(-c3ccc4ncccc4c3)o2)c1 unit_label=s measurement=753
molecule=Cc1cc(C(N)=O)c2cc(C(C)C)ccc2n1 unit_label=s measurement=591
molecule=COc1ccc(Cn2cc(S(=O)(=O)N3CCCC3)ccc2=O)cc1 unit_label=s measurement=796
molecule=O=C(CN1C(=O)CCCc2cc(S(=O)(=O)N3CCCCC3)ccc21)N1CCCCC1 unit_label=s measurement=819
molecule=CCCn1c(C)cnc1C1CN(S(=O)(=O)c2ccc(F)c(F)c2)C1 unit_label=s measurement=695
molecule="COc1ccc(N2CC(c3noc(-c4ccc(F)cc4)n3)CC2=O)cc1OC (stereo not given)" unit_label=s measurement=856
molecule=CCOc1ccc(-c2noc(Cn3nc(-c4cccc(OC)c4)ccc3=O)n2)cc1 unit_label=s measurement=1070
molecule=CCOc1cc(=O)n2c(c1C(=O)NCc1ccc(C)o1)CCCCC2 unit_label=s measurement=688
molecule=O=C(Cn1cnc2nc3c(cc2c1=O)CCCC3)NC1CCCCCC1 unit_label=s measurement=662
molecule=CC1CCN(S(=O)(=O)c2ccc(-c3cc(C(F)(F)F)on3)o2)CC1 unit_label=s measurement=1190
molecule=O=c1c2cc3c(cc2nc(SCc2nc(-c4cccc(F)c4)no2)n1Cc1ccncc1)OCO3 unit_label=s measurement=795
molecule=COc1cccc(-c2cc3c(=O)n(Cc4nc(-c5cccc(Br)c5)no4)ccn3n2)c1 unit_label=s measurement=1080
molecule=CSc1ccccc1C(=O)N1CCC(C(=O)NCc2nc(C)no2)CC1 unit_label=s measurement=628
molecule="CC(NC(=O)CCC(=O)N1CCc2c(c(C(=O)N3CCOCC3)nn2C)C1)c1ccccc1 (stereo not given)" unit_label=s measurement=632
molecule=COc1cccc(CNS(=O)(=O)c2ccc3c(c2)C(=O)N(C)c2ncccc2O3)c1 unit_label=s measurement=933

---

- procedure_details: gradient 5% acetonitrile 3 min, to 50% in 2 min, to 85% in 15 min, held 3 min, 100 µL/min
- assay_conditions: column: Zorbax Extend-C18 2.1 x 50 mm; eluents: water / acetonitrile, 0.1% formic acid
Recorded RP-LC retention time, one value per entry.
readout_type: RP-LC retention time (s)

molecule=O=C(N1CC(Oc2ccccc2-c2nc(C3CC3)no2)C1)C1(c2ccccc2)CC1 measurement=665
molecule=C[C@]12CC[C@H](O)CC1=CC[C@@H]1[C@@H]2CC[C@]2(C)c3[nH]ncc3C[C@@H]12 measurement=796
molecule="Cc1nc2cc(N3CC(C(=O)Nc4ccc(C)c(Cl)c4)CC3=O)ccc2o1 (centres undefined)" measurement=819
molecule=O=C(c1ccc(Cn2cncn2)cc1)N1CCN(c2ccc(F)cc2)CC1 measurement=700
molecule=CC(C)CN1CCn2cc(S(=O)(=O)NCc3ccccc3F)cc2C1=O measurement=792
molecule=COCCCn1c(=O)c2ccccc2n(Cc2nc(-c3cccc(Cl)c3)no2)c1=O measurement=1100
molecule=CC(C)(C)OC(=O)CN(c1ccc(F)cc1)S(=O)(=O)c1cccn2cnnc12 measurement=776
molecule=Cc1ccc(-c2nc(-c3ccc4nnc(C)n4c3)no2)cc1C measurement=1130
molecule=COc1ccccc1N1CCN(S(=O)(=O)c2cc3c(s2)CCN(C(C)=O)C3)CC1 measurement=838

---

- procedure_details: gradient 5% acetonitrile 3 min, to 50% in 2 min, to 85% in 15 min, held 3 min, 100 µL/min
- assay_conditions: column: Zorbax Extend-C18 2.1 x 50 mm; eluents: water / acetonitrile, 0.1% formic acid
readout_type: RP-LC retention time (s)

compound=O=C(Nc1cccc(Cl)c1)N1CCC(n2cnc3cc(F)ccc3c2=O)CC1 readout_type="RP-LC retention time" measurement=858
compound=Cc1ccc(-n2nc(N3CCN(C(=O)c4cccs4)CC3)ccc2=O)cc1C readout_type="RP-LC retention time" measurement=830
compound=COc1ccccc1N1CCN(C(=O)c2cn(-c3ccc(NC(C)=O)cn3)cn2)CC1 readout_type="RP-LC retention time" measurement=646
compound=O=C(NCCN1CCN(C(=O)c2cccs2)CC1)Nc1ccc(C(F)(F)F)cc1 readout_type="RP-LC retention time" measurement=586
compound=O=C(Cn1nc(N2CCCCCC2)c2ccccc2c1=O)Nc1ccccc1 readout_type="RP-LC retention time" measurement=1050
compound=Cc1nc(-c2nnn(-c3ccc(F)cc3)c2C)no1 readout_type="RP-LC retention time" measurement=789
compound=COc1ccc(C(=O)N2CCC3(CC2)NC(=O)c2ccc(Cl)cc2N3)c(C)c1 readout_type="RP-LC retention time" measurement=800
compound=CCN1C(=O)COc2ccc(-c3nc(NC(=O)c4ccco4)sc3C)cc21 readout_type="RP-LC retention time" measurement=883
compound=COc1ccc(CCC(=O)NC2CCN(c3nnc4ccc(C(F)(F)F)cn34)CC2)cc1 readout_type="RP-LC retention time" measurement=767
compound=COc1ccc(-c2nnc(Cc3nc(-c4ccc(Cl)cc4)no3)o2)cc1 readout_type="RP-LC retention time" measurement=1070
compound=O=C(Nc1c(-c2ccc(F)cc2)nc2ccccn12)c1cccc(C(F)(F)F)c1 readout_type="RP-LC retention time" measurement=748
compound="O=C(c1ccc(F)c(Cl)c1)N1CCCC(c2nnc(-c3ccccc3)o2)C1 (stereo not given)" readout_type="RP-LC retention time" measurement=913
compound=CC(C)c1cc(C(=O)Nc2ccc(F)cc2)nc2ccnn12 readout_type="RP-LC retention time" measurement=1090
compound=COc1cccc(NC(=O)N(C)CC2CCOCC2)c1 readout_type="RP-LC retention time" measurement=685
compound=CCN1CCN(S(=O)(=O)c2cc(-c3nnc(-c4ccc(OC)c(OC)c4)o3)ccc2C)CC1 readout_type="RP-LC retention time" measurement=1180
compound=CN(C)c1cc(C(=O)NC2CC2)c2ccccc2n1 readout_type="RP-LC retention time" measurement=565
compound=O=C(c1ccc2c(c1)OCO2)N(CCc1cscn1)Cc1cccnc1 readout_type="RP-LC retention time" measurement=602
compound="Cc1ccc(N2CCC(NC(=O)Cc3cccc(F)c3)C2=O)cc1 (stereo not given)" readout_type="RP-LC retention time" measurement=829
compound=COc1ccc2[nH]c(=O)c(CCC(=O)NCc3cccc(OC)c3OC)cc2c1 readout_type="RP-LC retention time" measurement=694
compound="CCCc1ccc(OCC(O)CN2CCN(C)CC2)cc1 (stereo not given)" readout_type="RP-LC retention time" measurement=551
